Attribution: patent US9920063B2

# Tested on: A549/ATCC
propertyMeasured: CC50 (µM)
Report the figure in µM without appending any unit label.

Query block: Determine from records and report CC50 for C=C1C(=O)O[C@H]2[C@H]1CC/C(COC(=O)c1cc3ccccc3[nH]1)=C\CC[C@@]1(C)O[C@@H]21 [BS-1-28]
Result block: 59.3

====

# Test system: MDA-MB-435
propertyMeasured: CC50 (µM)
Reply with just the number (in µM).

Query block: Tell me measured CC50 for C=C1C(=O)O[C@H]2[C@H]1CC/C(COC(=O)c1cc3ccccc3[nH]1)=C\CC[C@@]1(C)O[C@@H]21 [BS-1-28] please.
Result block: 5.85

====

# Tested on: SF-539
propertyMeasured: CC50 (µM)
Output spec: scalar in µM, unitless text.

Query block: Input C=C1C(=O)O[C@H]2[C@H]1CC/C(COC(=O)c1cc3ccccc3[nH]1)=C\CC[C@@]1(C)O[C@@H]21 [BS-1-28] , output reported CC50.
Result block: 6.53

====

# System: OVCAR-5
propertyMeasured: CC50 (µM)
Unit µM implied. Number only.

Query block: Find CC50 for "C=C1C(=O)O[C@H]2[C@H]1CC/C(COC(=O)c1cc3ccccc3[nH]1)=C\CC[C@@]1(C)O[C@@H]21" on OVCAR-5 and write it down.
Result block: 8.22

====

propertyMeasured: CC50 (µM)
// units = µM; emit number, no label

Query block: Param request: CC50 | system ACHN | item "C=C1C(=O)O[C@H]2[C@H]1CC/C(COC(=O)c1cc3ccccc3[nH]1)=C\CC[C@@]1(C)O[C@@H]21"
Result block: 4.22

====

# Tested on: SF-268
propertyMeasured: CC50
Returns: string containing the number followed by the unit.

Query block: Using known records, supply CC50 for "C=C1C(=O)O[C@H]2[C@H]1CC/C(COC(=O)c1cc3ccccc3[nH]1)=C\CC[C@@]1(C)O[C@@H]21"
Result block: 6.5 µM

====

propertyMeasured: CC50 (µM)
Quick note: give the figure in µM, leave out the unit.

Query block: Identify measured CC50 obtained with UACC-62 for "C=C1C(=O)O[C@H]2[C@H]1CC/C(COC(=O)c1cc3ccccc3[nH]1)=C\CC[C@@]1(C)O[C@@H]21" .
Result block: 6.98

====

# Test system: DU-145
propertyMeasured: CC50 (µM)
The reply should be a number in µM, with the unit left off.

Query block: Given C=C1C(=O)O[C@H]2[C@H]1CC/C(COC(=O)c1cc3ccccc3[nH]1)=C\CC[C@@]1(C)O[C@@H]21 [BS-1-28] , respond with its CC50.
Result block: 5.2

====

# System: M9 ENL cells
# assaySummary: cells
# conditionDescription: 24 h
propertyMeasured: pEC50
As a rule, pEC50 stands for the negative log10 of the concentration, concentration in M.

Query block: Please look at this molecule and report its pEC50: "C=C1C(=O)O[C@H]2[C@H]1CC/C(COC(=O)c1ccc3ccccc3c1)=C\CC[C@@]1(C)O[C@@H]21"
Result block: 5.77

Query block: Note down pEC50 recorded for "C=C1C(=O)O[C@H]2[C@H]1CC/C(COC(=O)c1ccc(Cl)cc1)=C\CC[C@@]1(C)O[C@@H]21"
Result block: 4.89

Query block: Return pEC50 (reported value) for this molecule: "C=C1C(=O)O[C@H]2[C@H]1CC/C(C(=O)N1CCCCC1)=C\CC[C@@]1(C)O[C@@H]21"
Result block: 5.08

Query block: For the molecule "C=C1C(=O)O[C@H]2[C@H]1CC/C(C(=O)N1CCC(C)CC1)=C\CC[C@@]1(C)O[C@@H]21" , give its measured pEC50 value.
Result block: 4.92

Query block: Answer with reported pEC50 of "C=C1C(=O)O[C@H]2[C@H]1CC/C(COC(=O)c1cc(OC)c(OC)c(OC)c1)=C\CC[C@@]1(C)O[C@@H]21"
Result block: 5.33

Query block: Supply pEC50 value. Item: "C=C1C(=O)O[C@H]2[C@H]1CC/C(COC(=O)c1cccc3ccccc13)=C\CC[C@@]1(C)O[C@@H]21"
Result block: 5.54
